experiment: chemical genetic growth profiling, strain panel (AID 1159580);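 note: tested at 20 µM; growth read once vehicle control cultures reached saturation at 30 °C; 1 = growth at the plate median or of vehicle wells; lower values mean less growth of the strain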; settings: S. cerevisiae deletion strains, growth OD, locus YOR001W, strain rrp6, stronger effect = lower value
Among all 5,500 compounds or so, about 2,000 (36%) were called active. About 18% were inconclusive and are not listed. The list shows a part of the results.
# note: boundary value 1 maps to no; normalized growth below it maps to yes

compound: c1ccc2c(CC3=NCCN3)cccc2c1
discrete.label: yes

compound: C[C@H]1C[C@@H](O)[C@]2(O)[C@@]13CC(=O)OC[C@@]2(C)[C@](C)(O)C(=O)C3
discrete.label: no

compound: CN(C/C=C/C#CC(C)(C)C)Cc1cccc2ccccc12
discrete.label: yes

compound: Clc1ccc(COC(Cn2ccnc2)c2ccc(Cl)cc2Cl)c(Cl)c1 (centres undefined)
discrete.label: yes

compound: Clc1ccc(CO/N=C(/Cn2ccnc2)c2ccc(Cl)cc2Cl)c(Cl)c1
discrete.label: yes

compound: Cc1cc(/C=C/c2ccc3cc(N(C)C)ccc3[n+]2C)c(C)n1-c1ccccc1
discrete.label: yes

====

assay: chemical genetic growth profiling, strain panel (AID 1159580); conditions: S. cerevisiae deletion strains, growth OD, locus YJL166W, strain qcr8
The campaign covered roughly 5,500 compounds. About 2,000 (36%) were called active. Not shown: some 18% with an inconclusive outcome. Cut-off read from the data, not from the text of the source: active = normalized growth mostly below about 0.91 (no sharp cut-off); inconclusive = no clear call, values can overlap the other calls; inactive = mostly above about 0.92. Some of the results follow.
Classes used: class 1 (active), class 0 (inactive)

compound: CC(O)(P(=O)(O)O)P(=O)(O)O
discrete.label: class 0
//
compound: CN1CCC[C@@H]1CCO[C@](C)(c1ccccc1)c1ccc(Cl)cc1
discrete.label: class 0
//
compound: COc1cc(C)c2c(=O)cc(-c3ccccc3)oc2c1
discrete.label: class 1
//
compound: CC(C)(S)[C@@H](N)C(=O)O
discrete.label: class 0
//
compound: NC(C(=O)O)C(O)C(=O)O (configuration not stated)
discrete.label: class 0
//
compound: COC1C=CC23c4cc5c(cc4CN(CC2O)[C@@H]3C1)OCO5 (some centres not stated)
discrete.label: class 0
//
compound: CC(=O)OC/C=C(\C)CC/C=C(\C)CC/C=C(\C)CC/C=C(\C)CC/C=C(\C)CC/C=C(\C)CC/C=C(\C)CC/C=C(\C)CCC=C(C)C
discrete.label: class 0
//
compound: O=C(O)C(O)C(O)C(=O)O (configuration not stated)
discrete.label: class 0
//
compound: NC(=O)NC1NC(=O)NC1=O (configuration not stated)
discrete.label: class 0
//
compound: COP(=S)(OC)Oc1ccc([N+](=O)[O-])cc1
discrete.label: class 0
//
compound: CCC(=O)OC1[C@@H]2CC3=C4CC(=O)O[C@@H](c5ccoc5)[C@]4(C)CCC3[C@@](C)(C2=O)[C@@H](CC(=O)OC)C1(C)C (some centres not stated)
discrete.label: class 0
//
compound: COP(=S)(OC)Oc1ccc(Sc2ccc(OP(=S)(OC)OC)cc2)cc1
discrete.label: class 0

====

test: chemical genetic growth profiling, strain panel (AID 1159580);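 note: tested at 20 µM; growth read once vehicle control cultures reached saturation at 30 °C; 1 = growth at the plate median or of vehicle wells; lower values mean less growth of the strain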; details: S. cerevisiae deletion strains, growth OD, locus YBR023C, strain chs3, stronger effect = lower value
About 2,000 (36%) of roughly 5,500 compounds were called active. Inconclusive results (about 18%) are left out. This is one part of the list.
recorded.metric: normalized growth

compound: COc1ccc(-c2oc3cc(OC)c(OC)c(OC)c3c(=O)c2OC)cc1OC
endpoint.value: 0.986

compound: C=C[C@@]1(C)CC(=O)[C@@]2(O)[C@](C)(O1)[C@@H](OC(C)=O)[C@@H](O)C1C(C)(C)CC[C@H](O)[C@@]12C (stereo partly drawn)
endpoint.value: 0.978

compound: CC(C)c1nc(N(C)S(C)(=O)=O)nc(-c2ccc(F)cc2)c1/C=C/[C@@H](O)C[C@@H](O)CC(=O)O
endpoint.value: 1.02

compound: COc1ccc2oc3ccccc3c(=O)c2c1
endpoint.value: 0.874

compound: C[C@]12C=CC(=O)C=C1CCC1C2[C@@H](O)C[C@@]2(C)C1CC[C@]2(O)C(=O)CO (stereo partly drawn)
endpoint.value: 1

compound: COC(=O)[C@@H]1OC(=O)C2OC23[C@@]1(C)CCC1[C@@]2(C)CCC(=O)C(C)(C)C2C[C@@H](OC(C)=O)[C@]13C (stereo partly drawn)
endpoint.value: 1.01

compound: COc1ccc(-c2oc3cc(OC)c(OC)c(OC)c3c(=O)c2OC)cc1
endpoint.value: 0.919

compound: CC(C)/C(O)=C1/C(=O)O[C@@H](c2ccoc2)[C@]2(C)C(O)[C@@H](O)[C@@]34OC5(C)OC67CC(C)(C(O)[C@]6(O)[C@@H](O)[C@]3(O5)C12)[C@H](CC(=O)O)[C@]74C (stereo partly drawn)
endpoint.value: 0.992

====

test: chemical genetic growth profiling, strain panel (AID 1159580);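 note: tested at 20 µM; growth read once vehicle control cultures reached saturation at 30 °C; 1 = growth at the plate median or of vehicle wells; lower values mean less growth of the strain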; conditions: S. cerevisiae deletion strains, growth OD, locus YDR137W, strain rgp1, stronger effect = lower value
About 2,000 (36%) of roughly 5,500 compounds were called active. Another 18% or so got no clear call; they are omitted. Some of the results follow.
The entries below come with measured normalized growth values attached.

compound: c1ccc2c(CC3=NCCN3)cccc2c1
normalized growth: 0.985 (inactive)
--
compound: Cc1ccc(C(=O)c2ccc(CC(=O)O)n2C)cc1
normalized growth: 1 (inactive)
--
compound: CC(=O)O[C@@H]1CC2C(C)(C)[C@@H](O)CC[C@]2(C)C2CC[C@@]3(C)[C@H](c4ccoc4)OC(=O)[C@H]4O[C@]43[C@@]21C (some centres undefined)
normalized growth: 0.986 (inactive)
--
compound: Cc1nnc(NS(=O)(=O)c2ccc(N)cc2)s1
normalized growth: 1.01 (inactive)
--
compound: CC(=O)O[C@H]1CC[C@@]2(C)C(C[C@@H](OC(C)=O)[C@]3(C)C2CC[C@@]2(C)[C@H](c4ccoc4)OC(=O)[C@H]4O[C@]423)C1(C)C (some centres undefined)
normalized growth: 1.08 (inactive)
--
compound: C[C@]12C=CC(=O)C=C1CCC1C2[C@@H](O)C[C@@]2(C)C1CC[C@]2(O)C(=O)CO (some centres undefined)
normalized growth: 1.03 (inactive)
--
compound: CC(=O)O[C@@H]1CC2C(C)(C)[C@H](O)CC[C@]2(C)C2CC[C@@]3(C)[C@H](c4ccoc4)OC(=O)C4OC43[C@@]21C (some centres undefined)
normalized growth: 1.02 (inactive)
--
compound: Cc1cc(CC(=O)O)n(C)c1C(=O)c1ccc(Cl)cc1
normalized growth: 1.04 (inactive)
--
compound: CC(C)c1nc(N(C)S(C)(=O)=O)nc(-c2ccc(F)cc2)c1/C=C/[C@@H](O)C[C@@H](O)CC(=O)O
normalized growth: 1.34 [resistant] (active)

====

The entries below come with measured normalized growth values attached.
test: chemical genetic growth profiling, strain panel (AID 1159580);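 note: tested at 20 µM; growth read once vehicle control cultures reached saturation at 30 °C; 1 = growth at the plate median or of vehicle wells; lower values mean less growth of the strain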; conditions: S. cerevisiae deletion strains, growth OD, locus YLR342W, strain FKS1, stronger effect = lower value
Among all 5,500 compounds or so, about 2,000 (36%) were called active. Roughly 18% stayed inconclusive and do not appear here. This is one part of the list.

compound: NC1(C(=O)O)CC1
normalized growth: 1.03
//
compound: CC(=O)Oc1ccc2c(c1)CCC1C2CC[C@]2(C)C(=O)CCC12 (stereo not given in full)
normalized growth: 0.965
//
compound: COc1ccc2oc3ccccc3c(=O)c2c1
normalized growth: 0.952
//
compound: CCN1C[C@@]2(COC)C3[C@@H](OC)[C@H]4[C@@H]1[C@]3(C(OC)C[C@H]2O)C1C[C@@]2(O)[C@H](OC(=O)c3ccccc3)C1[C@]4(OC(C)=O)[C@@H](O)[C@@H]2OC (stereo not given in full)
normalized growth: 1.01
//
compound: CCCCC(=O)O[C@]1(C(=O)CO)CCC2C3CCC4=CC(=O)CC[C@]4(C)C3[C@@H](O)C[C@@]21C (stereo not given in full)
normalized growth: 0.981
//
compound: COC(=O)[C@@H]1OC(=O)C2OC23[C@@]1(C)CCC1[C@@]2(C)CCC(=O)C(C)(C)C2C[C@@H](OC(C)=O)[C@]13C (stereo not given in full)
normalized growth: 1.02
//
compound: FC(F)(F)c1cccc(N2CCNCC2)c1
normalized growth: 0.997
//
compound: CC(=O)O[C@H]1C[C@@H](OC(C)=O)C(C)(C)C2C[C@@H](O)[C@]3(C)C(CC[C@@]4(C)[C@H](c5ccoc5)OC(=O)[C@H]5O[C@]543)[C@]21C (stereo not given in full)
normalized growth: 1.01
//
compound: COc1ccnc(CS(=O)c2nc3ccc(OC(F)F)cc3[nH]2)c1OC (stereo not given)
normalized growth: 1.02
//
compound: C1N2CN3CN1CN(C2)C3
normalized growth: 0.982
//
compound: COc1cc(C)c2c(=O)cc(-c3ccccc3)oc2c1
normalized growth: 0.901
//
compound: COP(=S)(OC)Oc1ccc(Sc2ccc(OP(=S)(OC)OC)cc2)cc1
normalized growth: 1.01
//
compound: COC1C=CC23c4cc5c(cc4CN(CC2O)[C@@H]3C1)OCO5 (stereo not given in full)
normalized growth: 0.99
//
compound: COC(=O)C1=COC(C)C2CN3CCC4(C(=O)Nc5ccccc54)C3CC12 (stereo not given)
normalized growth: 1.02
//
compound: CC(=O)O[C@H]1C[C@@H](OC(C)=O)C(C)(C)C2C[C@@H](OC(C)=O)[C@]3(C)C(CC[C@@]4(C)[C@H](c5ccoc5)OC(=O)[C@H]5O[C@]543)[C@]21C (stereo not given in full)
normalized growth: 1
//
compound: CN(C)CCC(c1ccccc1)c1ccccn1 (stereo not given)
normalized growth: 1.01
//
compound: CC(=O)O[C@@H]1CC2C(C)(C)[C@H](O)CC[C@]2(C)C2CC[C@@]3(C)[C@H](c4ccoc4)OC(=O)C4OC43[C@@]21C (stereo not given in full)
normalized growth: 1.01
//
compound: O=C(O)C1CCCNC1 (stereo not given)
normalized growth: 1.01
//
compound: NC1(C(=O)O)CCCC1
normalized growth: 1.02
//
compound: NCC[C@@H](O)C(=O)N[C@@H]1C[C@H](N)[C@@H](O[C@H]2O[C@H](CN)[C@@H](O)[C@H](O)[C@H]2O)[C@H](O)[C@H]1O[C@H]1O[C@H](CO)[C@@H](O)[C@H](N)C1O (stereo not given in full)
normalized growth: 1.03
//
compound: Cc1cc(/C=C/c2ccc3cc(N(C)C)ccc3[n+]2C)c(C)n1-c1ccccc1
normalized growth: 0.832
//
compound: CC(=O)N[C@@H](CCC(=O)O)C(=O)O
normalized growth: 1.01
//
compound: NC(=O)CS(=O)C(c1ccccc1)c1ccccc1 (stereo not given)
normalized growth: 1.02
//
compound: COc1ccc(-c2oc3cc(OC)c(OC)c(OC)c3c(=O)c2OC)cc1
normalized growth: 0.989
//
compound: O=C(O)COc1ccc(Cl)cc1Cl
normalized growth: 1
//
compound: CC(O)(P(=O)(O)O)P(=O)(O)O
normalized growth: 1
//
compound: C[C@]12CCC3c4ccc(O)cc4CCC3C1CCC2=O (stereo not given in full)
normalized growth: 1
//
compound: CCC(=O)OC1[C@@H]2CC3=C4CC(=O)O[C@@H](c5ccoc5)[C@]4(C)CCC3[C@@](C)(C2=O)[C@@H](CC(=O)OC)C1(C)C (stereo not given in full)
normalized growth: 0.981
//
compound: CC(=O)O[C@H]1CC[C@@]2(C)C(C[C@@H](OC(C)=O)[C@]3(C)C2CC[C@@]2(C)[C@H](c4ccoc4)OC(=O)[C@H]4O[C@]423)C1(C)C (stereo not given in full)
normalized growth: 0.994
//
compound: CC(=O)O[C@@H]1CC2C(C)(C)[C@@H](O)CC[C@]2(C)C2CC[C@@]3(C)[C@H](c4ccoc4)OC(=O)[C@H]4O[C@]43[C@@]21C (stereo not given in full)
normalized growth: 0.992

Cited source for all entries: PubChem BioAssay AID1159580
